Provenance of the data: ChEMBL document CHEMBL1201862

IC50: recorded values
Target: Rac GTPase-activating protein 1 (Homo sapiens, UniProt Q9H0H5)
Sequence (Q9H0H5 whole entry): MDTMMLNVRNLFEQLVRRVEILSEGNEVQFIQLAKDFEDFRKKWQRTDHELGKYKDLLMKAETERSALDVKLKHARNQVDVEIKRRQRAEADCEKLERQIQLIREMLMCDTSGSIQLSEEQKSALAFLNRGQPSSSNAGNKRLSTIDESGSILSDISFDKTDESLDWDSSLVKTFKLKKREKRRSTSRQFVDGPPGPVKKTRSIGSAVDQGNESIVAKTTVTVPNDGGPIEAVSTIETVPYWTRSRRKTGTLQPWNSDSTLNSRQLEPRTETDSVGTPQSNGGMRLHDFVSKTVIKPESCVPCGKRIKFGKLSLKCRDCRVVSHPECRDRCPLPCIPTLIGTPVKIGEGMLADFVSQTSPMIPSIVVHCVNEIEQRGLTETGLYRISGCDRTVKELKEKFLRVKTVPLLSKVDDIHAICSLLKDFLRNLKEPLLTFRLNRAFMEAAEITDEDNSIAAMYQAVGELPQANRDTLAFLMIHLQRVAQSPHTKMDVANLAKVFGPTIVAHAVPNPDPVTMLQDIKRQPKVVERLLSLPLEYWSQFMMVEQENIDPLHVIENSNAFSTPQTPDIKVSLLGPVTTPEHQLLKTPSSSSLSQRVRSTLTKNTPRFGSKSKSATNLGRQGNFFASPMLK
Assay: blockers of MgcRacGAP-driven Rac1 GTP hydrolysis – biochemical, ADP Hunter fluorescence, primary and confirmatory, confirmation (AID 624330)
Assay type: functional
Calls of active or inactive are those of the source.

Look over these answered cases.
Cc1cc(C)c(OCC(O)CN2CCN(C(=O)c3ccccc3)CC2)c(C)c1 (configuration not stated)    139 µM (active)
COc1ccc(NC2CCCN(C(=O)CN3CCOC3=O)C2)cc1 (configuration not stated)    109 µM (active)
COc1ccc(N2CC2c2ccncc2)cc1 (configuration not stated)    144 µM (active)
COc1ccc(NC2=NC(=O)/C(=C/c3ccc(O)c(OC)c3)S2)cc1    17.9 µM (active)
COc1cc(CN2CCN(C(=O)CC(C)C)CC2)cc(OC)c1O    78.6 µM (active)
COc1ccc(C(CNC(=O)c2cc3ccccc3cc2O)N2CCOCC2)cc1 (configuration not stated)    77 µM (active)
COc1cc(/C=N/NC(=O)C(=O)N2CCCC2)ccc1O    26.7 µM (active)
C/C(=N\NC(=O)CSCc1ccccc1Cl)c1cc(O)ccc1O    24.3 µM (active)

Prompt line: Item "O=C1/C(=C/c2ccc(O)c(O)c2)Oc2cc(O)ccc21" with Rac GTPase-activating protein 1 (Homo sapiens, UniProt Q9H0H5) - IC50?
Response line: 20.6 µM (active)

Prompt line: Item "CCOc1cc(/C=C2\N=C3CCCCCN3C2=O)ccc1O" with Rac GTPase-activating protein 1 (Homo sapiens, UniProt Q9H0H5) - IC50?
Response line: 39.9 µM (active)

Prompt line: Item "CCOC(=O)N1CCC(N2CCN(S(=O)(=O)c3ccc4ccccc4c3)CC2)CC1" with Rac GTPase-activating protein 1 (Homo sapiens, UniProt Q9H0H5) - IC50?
Response line: 151 µM (active)

Prompt line: Item "Cc1cc(N2CCCC2)ccc1NC(=O)CN1C(=O)NC2(CCCCC2)C1=O" with Rac GTPase-activating protein 1 (Homo sapiens, UniProt Q9H0H5) - IC50?
Response line: 268 µM (active)

====

target: Genome polyprotein (dengue virus type 2, UniProt P29990); experiment: flavivirus cap methylation enzyme inhibition – biochemical, confirmation dose response, primary screen (AID 588689); assay type: functional
Calls of active or inactive are those of the source.
Recorded Endpoint: IC50

Look over these answered cases.
Cn1cccc1/C=C1/C(=O)NC(=S)N(Cc2ccc(F)cc2)C1=O    > 100 µM (active)
COC(=O)c1cccc(N2C(=O)C(Cl)=C(N3CCOCC3)C2=O)c1    23.6 µM (active)
O=C(O)Cn1cc(C=C2C(=O)NC(=O)NC2=O)c2ccccc21    > 100 µM (active)

// next entry
Prompt line: What value of IC50 has been recorded for this entry: CC1=NN(Cc2ccccc2)C(=O)C1C(c1ccccc1)C(C#N)C#N (centres undefined)
Response line: 55.4 µM (active)

====

experiment: viability of HCT116 lacking mutant beta-catenin – cell-based, human colon tumor, dose response (AID 1045); type: functional;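 note: HCT116 colon tumor cells with beta catenin knocked out; cells exposed to compound for 60 hours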
The source made the active and inactive calls.
EC50: recorded values

Prompt line: What value of EC50 has been recorded for this entry: CCC(CO)N1C(C)=CC(=Cc2sc3ccccc3[n+]2Cc2ccccc2)C=C1C (configuration not stated)
Response line: 0.775 µM (active)

Prompt line: What value of EC50 has been recorded for this entry: CCC(C)NCC(=O)Nc1ccc(-c2nc3cc(NC(=O)CNC(C)CC)ccc3o2)cc1 (configuration not stated)
Response line: 2.98 µM (active)

====

biological target: Calpain-2 catalytic subunit (Sus scrofa, UniProt P43367); test: m-calpain protease blockers, concentration series – biochemical, fluorogenic peptide substrate, dose response (AID 1420); type: functional
Sequence (P43367 whole entry): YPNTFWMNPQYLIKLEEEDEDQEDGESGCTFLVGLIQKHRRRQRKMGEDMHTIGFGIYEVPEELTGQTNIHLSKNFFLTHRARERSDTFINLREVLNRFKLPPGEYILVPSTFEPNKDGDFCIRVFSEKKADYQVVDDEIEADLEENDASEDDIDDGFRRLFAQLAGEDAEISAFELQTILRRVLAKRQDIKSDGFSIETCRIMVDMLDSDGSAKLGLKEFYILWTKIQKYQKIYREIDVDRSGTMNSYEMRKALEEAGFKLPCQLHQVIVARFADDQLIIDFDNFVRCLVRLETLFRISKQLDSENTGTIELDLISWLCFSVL
Recorded Endpoint: IC50

Look over these answered cases.
CC(C)NC(=S)N/N=C/C1=CCC2CC1C2(C)C (stereo not drawn)    49 µM (not active)
CC(C)Cn1c(N)c(C(=O)COC(=O)c2cnc(Cl)c(Cl)c2)c(=O)n(C)c1=O    15.3 µM (not active)
CCCCN(CC)CCNC(=O)CNC(=O)Cn1ccc2ccccc2c1=O    46.5 µM (not active)

Prompt line: What value of IC50 has been recorded for this entry: "O=C(c1ccc(Cl)cc1Cl)N1CCC(c2nc(O)c3nnn(Cc4ccco4)c3n2)CC1"
Response line: > 50 µM (not active)

Prompt line: What value of IC50 has been recorded for this entry: OC(CNCC(c1ccc(Cl)cc1Cl)c1c[nH]c2ccccc12)c1ccccc1 (stereo not drawn)
Response line: 11.4 µM (not active)

Prompt line: What value of IC50 has been recorded for this entry: CCN1CCN(C2=CC3=CC(=C(C#N)C#N)CCC3CC2)CC1 (stereo not drawn)
Response line: 30.6 µM (not active)

Prompt line: What value of IC50 has been recorded for this entry: "C=CCNC(=S)N/N=C/c1ccc(C)s1"
Response line: 27.1 µM (not active)

Prompt line: What value of IC50 has been recorded for this entry: "CC(=O)Nc1ccc(Nc2ccc(S(=O)(=O)C(F)(F)F)cc2[N+](=O)[O-])cc1"
Response line: 20 µM (not active)

====

tested on: H4; test: Luminescence Cell-Based Dose Response HTS to Identify Activators of 5'UTR Stem-Loop Driven Prion Protein mRNA Translation in H4 Neuroglioblastoma Cells. [Related pubchem assays: 1829 (Project Summary), 1814 (Primary HTS)]; type: functional; details: Homo sapiens
Active and inactive are the calls of the source.
EC50: recorded values

O=C(CNS(=O)(=O)c1cccs1)Nc1ccc2c(c1)OCCO2    2.85 µM (active)
Cc1nc(NC(=O)c2cccc(Cl)c2)sc1C(=O)N1CCCCC1    20.1 µM (active)
c1ccc(CSc2nnc(-c3ccco3)n2Cc2ccccc2)cc1    7.76 µM (active)

Prompt line: Item COc1ccc(C2=NN(CN3C(=O)C(=O)c4ccccc43)C(c3ccc(OC)cc3)C2)cc1 (stereo not given) with H4 - EC50?
Response line: 0.112 µM (active)

Prompt line: Item "ClC(=C\c1ccccc1)/C=N/N1CCN(c2ccccn2)CC1" with H4 - EC50?
Response line: 8.35 µM (active)

====

target: Voltage-dependent T-type calcium channel subunit alpha-1H (Homo sapiens); format: functional;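 note: channel activity triggered by adding a high calcium stimulation buffer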
Sequence (O95180 whole entry): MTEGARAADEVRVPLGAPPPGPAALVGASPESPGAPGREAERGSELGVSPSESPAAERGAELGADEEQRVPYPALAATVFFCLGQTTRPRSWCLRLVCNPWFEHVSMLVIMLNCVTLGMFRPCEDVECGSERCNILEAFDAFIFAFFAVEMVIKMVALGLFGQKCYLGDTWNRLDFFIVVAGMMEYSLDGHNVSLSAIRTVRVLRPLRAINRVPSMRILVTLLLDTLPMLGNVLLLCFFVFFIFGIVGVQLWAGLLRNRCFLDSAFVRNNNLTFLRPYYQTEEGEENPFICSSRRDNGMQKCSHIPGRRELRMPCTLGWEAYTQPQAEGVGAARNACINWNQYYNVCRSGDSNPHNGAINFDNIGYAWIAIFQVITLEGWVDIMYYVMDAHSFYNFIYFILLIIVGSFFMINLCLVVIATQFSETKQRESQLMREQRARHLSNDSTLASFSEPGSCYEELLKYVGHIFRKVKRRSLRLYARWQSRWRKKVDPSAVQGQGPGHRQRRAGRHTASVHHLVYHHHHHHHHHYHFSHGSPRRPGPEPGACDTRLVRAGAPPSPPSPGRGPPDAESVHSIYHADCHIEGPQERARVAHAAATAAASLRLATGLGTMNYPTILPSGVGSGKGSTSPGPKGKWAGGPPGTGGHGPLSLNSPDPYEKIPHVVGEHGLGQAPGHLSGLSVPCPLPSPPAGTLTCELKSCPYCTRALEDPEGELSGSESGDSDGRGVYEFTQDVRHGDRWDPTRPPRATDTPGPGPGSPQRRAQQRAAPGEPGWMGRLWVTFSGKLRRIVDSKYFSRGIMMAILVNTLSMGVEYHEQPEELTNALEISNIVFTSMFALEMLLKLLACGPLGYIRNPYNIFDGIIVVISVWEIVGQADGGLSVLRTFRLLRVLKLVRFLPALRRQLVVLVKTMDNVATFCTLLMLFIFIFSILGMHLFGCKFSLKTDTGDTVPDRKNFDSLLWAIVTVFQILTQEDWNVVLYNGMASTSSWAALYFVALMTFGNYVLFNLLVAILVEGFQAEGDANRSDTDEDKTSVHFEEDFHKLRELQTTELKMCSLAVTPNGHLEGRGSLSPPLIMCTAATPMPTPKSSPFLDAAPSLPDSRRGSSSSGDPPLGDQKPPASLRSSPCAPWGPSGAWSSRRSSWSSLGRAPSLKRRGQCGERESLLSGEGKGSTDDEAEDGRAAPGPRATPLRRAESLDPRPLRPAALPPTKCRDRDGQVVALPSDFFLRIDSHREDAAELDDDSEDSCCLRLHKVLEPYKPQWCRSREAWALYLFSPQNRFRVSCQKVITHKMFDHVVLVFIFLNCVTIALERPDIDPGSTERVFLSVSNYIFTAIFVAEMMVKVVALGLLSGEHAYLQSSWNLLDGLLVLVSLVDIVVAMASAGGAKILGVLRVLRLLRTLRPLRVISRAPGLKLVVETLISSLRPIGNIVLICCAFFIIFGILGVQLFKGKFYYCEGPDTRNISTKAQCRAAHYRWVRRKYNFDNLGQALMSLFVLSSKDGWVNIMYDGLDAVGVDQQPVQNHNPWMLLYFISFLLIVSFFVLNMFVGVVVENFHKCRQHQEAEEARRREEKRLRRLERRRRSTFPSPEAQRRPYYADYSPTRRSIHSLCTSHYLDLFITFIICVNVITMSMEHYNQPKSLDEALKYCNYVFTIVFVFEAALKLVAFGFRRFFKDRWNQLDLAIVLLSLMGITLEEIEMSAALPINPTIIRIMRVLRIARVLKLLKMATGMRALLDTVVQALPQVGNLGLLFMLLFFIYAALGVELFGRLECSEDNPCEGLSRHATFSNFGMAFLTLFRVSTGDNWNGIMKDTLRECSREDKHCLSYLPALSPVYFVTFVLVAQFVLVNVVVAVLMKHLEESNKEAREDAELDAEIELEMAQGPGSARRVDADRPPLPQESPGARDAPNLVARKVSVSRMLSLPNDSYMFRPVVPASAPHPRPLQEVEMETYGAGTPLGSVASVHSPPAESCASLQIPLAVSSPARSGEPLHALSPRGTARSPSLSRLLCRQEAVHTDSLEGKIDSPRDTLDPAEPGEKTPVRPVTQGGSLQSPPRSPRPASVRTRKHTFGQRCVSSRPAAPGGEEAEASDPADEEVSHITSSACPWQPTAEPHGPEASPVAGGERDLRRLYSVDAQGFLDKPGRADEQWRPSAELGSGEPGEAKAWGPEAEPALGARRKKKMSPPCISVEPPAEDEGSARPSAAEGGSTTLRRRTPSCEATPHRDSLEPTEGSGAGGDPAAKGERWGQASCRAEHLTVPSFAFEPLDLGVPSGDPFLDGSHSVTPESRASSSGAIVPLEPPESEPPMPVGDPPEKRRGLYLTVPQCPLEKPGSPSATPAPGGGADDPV
Active and inactive are the calls of the source.
Recorded Endpoint: EC50

Look over these answered cases.
Cc1cc2nc(C3CCN(CC4COc5ccccc5O4)CC3)[nH]c2cc1C (centres undefined)    4.9 µM (active)
Cc1nc2c(C(=O)NCc3ccc4c(c3)OCO4)cnn2c(O)c1Cc1ccccc1F    7.38 µM (active)
CC(C)(C)n1nnnc1C(c1ccc(Cl)cc1)N(Cc1cccnc1)Cc1ccco1 (centres undefined)    3.31 µM (active)

// next entry
Prompt line: Item "COc1ccc(C(=O)Nc2nc(-c3cccs3)cs2)cc1" with Voltage-dependent T-type calcium channel subunit alpha-1H (Homo sapiens) - EC50?
Response line: 1.08 µM (active)

====

EC50: recorded values
biological target: Peroxisome proliferator-activated receptor gamma/Nuclear receptor coactivator 2 (Homo sapiens, UniProt P37231); test: TR-FRET dose response biochemical High Throughput Screening assay for agonists of the steroid receptor coactivator 2 (SRC-2) recruitment by the peroxisome proliferator-activated receptor gamma (PPAR gamma): non-selective agonists. [Related pubchem assays: 1297, 1032 ]; type: functional
Sequence (P37231 whole entry): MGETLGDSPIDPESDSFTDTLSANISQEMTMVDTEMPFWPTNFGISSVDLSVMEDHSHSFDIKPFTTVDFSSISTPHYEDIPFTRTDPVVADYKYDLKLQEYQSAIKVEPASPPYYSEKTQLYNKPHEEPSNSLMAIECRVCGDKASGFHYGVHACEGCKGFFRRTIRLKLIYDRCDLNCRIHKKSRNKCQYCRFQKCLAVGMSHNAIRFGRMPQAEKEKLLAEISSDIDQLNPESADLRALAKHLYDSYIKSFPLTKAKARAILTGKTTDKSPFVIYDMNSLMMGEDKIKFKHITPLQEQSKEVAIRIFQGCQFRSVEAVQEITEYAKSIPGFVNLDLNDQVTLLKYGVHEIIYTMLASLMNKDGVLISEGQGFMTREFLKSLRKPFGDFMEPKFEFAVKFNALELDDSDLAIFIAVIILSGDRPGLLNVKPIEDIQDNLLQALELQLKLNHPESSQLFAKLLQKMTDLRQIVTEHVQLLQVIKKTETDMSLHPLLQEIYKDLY
Sequence (Q15596 whole entry, further chain): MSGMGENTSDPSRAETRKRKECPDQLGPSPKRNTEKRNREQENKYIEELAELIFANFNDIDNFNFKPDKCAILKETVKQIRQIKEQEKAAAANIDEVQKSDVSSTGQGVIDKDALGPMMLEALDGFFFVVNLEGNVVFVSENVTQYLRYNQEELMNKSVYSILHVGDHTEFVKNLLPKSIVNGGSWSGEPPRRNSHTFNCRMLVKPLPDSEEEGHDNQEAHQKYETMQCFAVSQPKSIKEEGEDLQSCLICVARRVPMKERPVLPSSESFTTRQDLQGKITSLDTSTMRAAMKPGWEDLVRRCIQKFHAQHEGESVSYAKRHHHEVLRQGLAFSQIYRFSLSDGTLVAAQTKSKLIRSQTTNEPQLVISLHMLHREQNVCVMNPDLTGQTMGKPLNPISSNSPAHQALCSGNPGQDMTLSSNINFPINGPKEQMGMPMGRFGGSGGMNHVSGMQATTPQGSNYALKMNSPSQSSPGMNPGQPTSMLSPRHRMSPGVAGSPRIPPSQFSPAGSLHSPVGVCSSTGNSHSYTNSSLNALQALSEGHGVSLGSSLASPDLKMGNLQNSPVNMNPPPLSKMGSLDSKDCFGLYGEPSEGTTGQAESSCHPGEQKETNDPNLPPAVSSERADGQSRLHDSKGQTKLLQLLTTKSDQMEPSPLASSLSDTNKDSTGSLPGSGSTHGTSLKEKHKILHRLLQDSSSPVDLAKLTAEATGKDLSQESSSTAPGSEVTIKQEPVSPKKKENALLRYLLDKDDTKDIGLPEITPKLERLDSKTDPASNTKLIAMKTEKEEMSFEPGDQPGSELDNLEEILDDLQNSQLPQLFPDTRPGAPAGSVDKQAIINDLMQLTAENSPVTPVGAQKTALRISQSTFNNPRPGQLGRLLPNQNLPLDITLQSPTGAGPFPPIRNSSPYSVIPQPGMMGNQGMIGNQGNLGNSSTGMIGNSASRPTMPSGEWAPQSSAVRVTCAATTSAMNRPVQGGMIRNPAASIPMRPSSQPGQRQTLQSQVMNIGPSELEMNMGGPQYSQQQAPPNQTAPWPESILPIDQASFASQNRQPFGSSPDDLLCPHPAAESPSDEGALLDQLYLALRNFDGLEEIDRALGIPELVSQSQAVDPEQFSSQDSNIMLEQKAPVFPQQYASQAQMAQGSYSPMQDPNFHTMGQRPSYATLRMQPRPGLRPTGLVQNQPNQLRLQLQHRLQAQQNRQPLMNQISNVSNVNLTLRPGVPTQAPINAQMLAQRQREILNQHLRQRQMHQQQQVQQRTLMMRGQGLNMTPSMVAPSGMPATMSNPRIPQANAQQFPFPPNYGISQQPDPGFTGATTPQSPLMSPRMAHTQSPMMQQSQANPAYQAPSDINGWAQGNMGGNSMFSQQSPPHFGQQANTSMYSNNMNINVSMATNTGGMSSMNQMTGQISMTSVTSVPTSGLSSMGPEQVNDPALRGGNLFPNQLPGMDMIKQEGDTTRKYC
Active and inactive are the calls of the source.

CCn1c(=O)cc(SCC(=O)NCc2ccco2)c2ccccc21    > 79.4 µM (not active)
O=C(CSc1ncnc2c1oc1ccccc12)Nc1cccc(Cl)c1    23.7 µM (not active)
COc1ccc(-c2nnc(Nc3ccc(S(=O)(=O)Nc4nccs4)cc3)c3ccccc23)cc1    9.18 µM (active)

// next entry
Prompt line: What value of EC50 has been recorded for this entry: "Cc1cccc(OCC(=O)Nc2nnc(-c3ccco3)s2)c1"
Response line: > 26.5 µM (not active)
